The measured values listed here are drawn from patent US20060211747A1.

measured-on: Cdc34-FLAG (Homo sapiens)
Construct: GST with Factor Xa cleavage site (N, cleaved yes); made in house; host or cells: baculovirus, High Five insect cells
Sequence (P49427 1-236): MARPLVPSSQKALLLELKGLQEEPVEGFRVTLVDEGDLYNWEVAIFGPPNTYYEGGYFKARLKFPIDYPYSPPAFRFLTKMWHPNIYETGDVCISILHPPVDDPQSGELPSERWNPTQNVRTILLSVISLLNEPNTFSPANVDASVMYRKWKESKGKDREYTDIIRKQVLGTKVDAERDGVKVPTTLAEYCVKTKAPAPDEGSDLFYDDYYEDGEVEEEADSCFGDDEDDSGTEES
assay-remarks: Cdc34 thioester assay in the presence of the chelating agents phenantroline or TSQ (zinc depletion / re-addition)
Type: biochemical
cond: 1,10-Phenanthroline 0 μM, ZnCl2 0 nM; read-out: Compound I IC50
pIC50: −log10 of the molar value.
recorded-endpoint: pIC50

>>> print(df.to_string())
                                   compound  test_value
0  Cc1cc(C)n(C(=O)c2cn3c(C)csc3n2)n1 [Compound I]        6.13

----------
measured-on: Cdc34-FLAG (Homo sapiens)
Construct: GST with Factor Xa cleavage site (N, cleaved yes); made in house; host or cells: baculovirus, High Five insect cells
assay-remarks: Cdc34 thioester assay in the presence of the chelating agents phenantroline or TSQ (zinc depletion / re-addition)
Assay type: biochemical
cond: 1,10-Phenanthroline 2 μM, ZnCl2 100 nM; read-out: Compound I IC50
recorded-endpoint: IC50

In [3]: df
Out[3]:
                         smiles_repr  recorded_endpoint  test_value
0  Cc1cc(C)n(C(=O)c2cn3c(C)csc3n2)n1               IC50      640 nM

----------
measured-on: Cdc34-FLAG (ubiquitin conjugating enzyme Cdc34, SwissProt P49427) (Homo sapiens)
Construct: GST with Factor Xa cleavage site (N, cleaved yes); made in house; host or cells: baculovirus, High Five insect cells
assay-remarks: Cdc34 thioester assay (time resolved fluorescence)
Type: biochemical
cond: thioester formation; mean of n=5; read-out: Cdc34-FLAG IC50
recorded-endpoint: IC50 (nM)

In [3]: df
Out[3]:
                         smiles_repr  recorded_endpoint  test_value
0  Cc1cc(C)n(C(=O)c2cn3c(C)csc3n2)n1               IC50         390

----------
measured-on: Cdc34-FLAG (Homo sapiens, UniProt P49427)
Construct: GST with Factor Xa cleavage site (N, cleaved yes); made in house; host or cells: baculovirus, High Five insect cells
assay-remarks: Cdc34 thioester assay in the presence of the chelating agents phenantroline or TSQ (zinc depletion / re-addition)
Format: biochemical
cond: TSQ 10 μM, ZnCl2 0 nM; read-out: Compound I IC50
recorded-endpoint: IC50 (µM)

                                   compound                               measured_on  recorded_endpoint  test_value
0  Cc1cc(C)n(C(=O)c2cn3c(C)csc3n2)n1 [Compound I]  Cdc34-FLAG (Homo sapiens, UniProt P49427)               IC50        10.6

----------
measured-on: Cdc34-FLAG (Homo sapiens)
Construct: GST with Factor Xa cleavage site (N, cleaved yes); made in house; host or cells: baculovirus, High Five insect cells
assay-remarks: Cdc34 thioester assay in the presence of the chelating agents phenantroline or TSQ (zinc depletion / re-addition)
Assay type: biochemical
cond: TSQ 10 μM, ZnCl2 100 nM; read-out: Compound I IC50
pIC50: −log10 of the molar value.
recorded-endpoint: pIC50

                                   molecule  recorded_endpoint  test_value
0  Cc1cc(C)n(C(=O)c2cn3c(C)csc3n2)n1 [Compound I]              pIC50        5.48

----------
measured-on: Cdc34-FLAG (Homo sapiens)
Construct: GST with Factor Xa cleavage site (N, cleaved yes); made in house; host or cells: baculovirus, High Five insect cells
assay-remarks: Cdc34 thioester assay in the presence of the chelating agents phenantroline or TSQ (zinc depletion / re-addition)
Assay type: biochemical
cond: 1,10-Phenanthroline 2 μM, ZnCl2 200 nM; read-out: Compound I IC50
recorded-endpoint: IC50 (nM)

In [3]: df
Out[3]:
                         smiles_repr  recorded_endpoint  test_value
0  Cc1cc(C)n(C(=O)c2cn3c(C)csc3n2)n1               IC50         710

----------
measured-on: Cdc34-FLAG (Homo sapiens)
Construct: GST with Factor Xa cleavage site (N, cleaved yes); made in house; host or cells: baculovirus, High Five insect cells
assay-remarks: Cdc34 thioester assay in the presence of the chelating agents phenantroline or TSQ (zinc depletion / re-addition)
Type: biochemical
cond: TSQ 2 μM, ZnCl2 100 nM; read-out: Compound I IC50
recorded-endpoint: IC50 (nM)

>>> print(df.to_string())
                         smiles_repr  recorded_endpoint  reading_unit  test_value
0  Cc1cc(C)n(C(=O)c2cn3c(C)csc3n2)n1               IC50            nM         950

----------
measured-on: Cdc34-FLAG (Homo sapiens)
Construct: GST with Factor Xa cleavage site (N, cleaved yes); made in house; host or cells: baculovirus, High Five insect cells
assay-remarks: Cdc34 thioester assay in the presence of the chelating agents phenantroline or TSQ (zinc depletion / re-addition)
Format: biochemical
cond: 1,10-Phenanthroline 0 μM, ZnCl2 200 nM; read-out: Compound I IC50
pIC50: −log10 of the molar value.
recorded-endpoint: pIC50

>>> df
                                   molecule                measured_on  test_value
0  Cc1cc(C)n(C(=O)c2cn3c(C)csc3n2)n1 [Compound I]  Cdc34-FLAG (Homo sapiens)        6.44

----------
measured-on: Cdc34-FLAG (Homo sapiens, UniProt P49427)
Construct: GST with Factor Xa cleavage site (N, cleaved yes); made in house; host or cells: baculovirus, High Five insect cells
assay-remarks: Cdc34 thioester assay in the presence of the chelating agents phenantroline or TSQ (zinc depletion / re-addition)
Type: biochemical
cond: TSQ 10 μM, ZnCl2 200 nM; read-out: Compound I IC50
recorded-endpoint: IC50 (nM)

                         smiles_repr  test_value
0  Cc1cc(C)n(C(=O)c2cn3c(C)csc3n2)n1         600

----------
measured-on: Cdc34-FLAG (Homo sapiens)
Construct: GST with Factor Xa cleavage site (N, cleaved yes); made in house; host or cells: baculovirus, High Five insect cells
assay-remarks: Cdc34 thioester assay in the presence of the chelating agents phenantroline or TSQ (zinc depletion / re-addition)
Format: biochemical
cond: 1,10-Phenanthroline 10 μM, ZnCl2 200 nM; read-out: Compound I IC50
recorded-endpoint: IC50 (µM)

                         smiles_repr                measured_on  test_value
0  Cc1cc(C)n(C(=O)c2cn3c(C)csc3n2)n1  Cdc34-FLAG (Homo sapiens)        1.38

----------
measured-on: Cdc34-FLAG (Homo sapiens)
Construct: GST with Factor Xa cleavage site (N, cleaved yes); made in house; host or cells: baculovirus, High Five insect cells
assay-remarks: Cdc34 thioester assay in the presence of the chelating agents phenantroline or TSQ (zinc depletion / re-addition)
Format: biochemical
cond: TSQ 2 μM, ZnCl2 200 nM; read-out: Compound I IC50
pIC50: −log10 of the molar value.
recorded-endpoint: pIC50

>>> print(df.to_string())
                                   compound  recorded_endpoint  test_value
0  Cc1cc(C)n(C(=O)c2cn3c(C)csc3n2)n1 [Compound I]              pIC50        5.89

----------
measured-on: Cdc34-FLAG (Homo sapiens)
Construct: GST with Factor Xa cleavage site (N, cleaved yes); made in house; host or cells: baculovirus, High Five insect cells
assay-remarks: Cdc34 thioester assay in the presence of the chelating agents phenantroline or TSQ (zinc depletion / re-addition)
Format: biochemical
cond: TSQ 0 μM, ZnCl2 200 nM; read-out: Compound I IC50
pIC50: −log10 of the molar value.
recorded-endpoint: pIC50

>>> df
                                   molecule  test_value
0  Cc1cc(C)n(C(=O)c2cn3c(C)csc3n2)n1 [Compound I]        6.15

----------
measured-on: Cdc34-FLAG (Homo sapiens)
Construct: GST with Factor Xa cleavage site (N, cleaved yes); made in house; host or cells: baculovirus, High Five insect cells
Sequence (P49427 1-236): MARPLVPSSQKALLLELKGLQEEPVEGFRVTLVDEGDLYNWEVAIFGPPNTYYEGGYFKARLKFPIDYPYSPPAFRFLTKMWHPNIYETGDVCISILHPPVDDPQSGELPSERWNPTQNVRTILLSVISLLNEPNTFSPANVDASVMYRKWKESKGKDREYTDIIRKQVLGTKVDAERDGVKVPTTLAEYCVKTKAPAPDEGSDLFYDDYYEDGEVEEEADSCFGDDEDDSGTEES
assay-remarks: Cdc34 thioester assay in the presence of the chelating agents phenantroline or TSQ (zinc depletion / re-addition)
Format: biochemical
cond: TSQ 2 μM, ZnCl2 0 nM; read-out: Compound I IC50
pIC50: −log10 of the molar value.
recorded-endpoint: pIC50

>>> df
                                   compound                measured_on  test_value
0  Cc1cc(C)n(C(=O)c2cn3c(C)csc3n2)n1 [Compound I]  Cdc34-FLAG (Homo sapiens)        5.38
